System: HCI-008 (organoid from a HER2-enriched breast cancer xenograft)
testDetails: CTG-3D luminescence at 96 h relative to day-0 seeding control (ratio to day 0); higher = more growth / less cytotoxicity; PDxO 3D drug screen (set 2), 96 h, CTG-3D normalised to day-0 seeding control.
conditionNotes: 0.005 µM; days in culture: 340
measuredProperty: CTG-3D luminescence at 96 h
Numbers only.

Use the examples below as a reference point.
CO[C@H]1C[C@@H]2CC[C@@H](C)[C@@](O)(O2)C(=O)C(=O)N2CCCC[C@H]2C(=O)O[C@H]([C@H](C)C[C@@H]2CC[C@@H](O)[C@H](OC)C2)CC(=O)[C@H](C)/C=C(\C)[C@@H](O)[C@@H](OC)C(=O)[C@H](C)C[C@H](C)/C=C/C=C/C=C/1C : 1.44
CCOc1ccn(-c2ccc(F)cc2)c(=O)c1C(=O)Nc1ccc(Oc2ccnc(N)c2Cl)c(F)c1 : 1.52
CC(=O)O[C@@]12CO[C@@H]1C[C@H](O)[C@@]1(C)C(=O)[C@H](O)C3=C(C)[C@@H](OC(=O)[C@H](O)[C@@H](NC(=O)OC(C)(C)C)c4ccccc4)C[C@@](O)([C@@H](OC(=O)c4ccccc4)[C@H]21)C3(C)C : 1.26

Kindly give each listed record's CTG-3D luminescence at 96 h.
1. C[C@@H](Nc1cc(F)cc(F)c1)c1cc(C(=O)N(C)C)cc2c(=O)cc(N3CCOCC3)oc12
2. O=C(c1cc(Cc2n[nH]c(=O)c3ccccc23)ccc1F)N1CCN(C(=O)C2CC2)CC1

Response:
1. 1.8
2. 1.84

Where these numbers come from: the supplement of paper PMC8882468
